# Procedure details: yeast display, Sf9 membrane polyspecificity reagent, FACS + sequencing; frameworks hold sequencing errors
Reported property: polyreactivity (PSR sort gate)

Example entries begin here.
Chain sequence: QVQLVESGGGLVQAGGSLRLSCAASGSIFASYAMGWYRQAPGKERELVAAIRSSGGRTYYADSVKGRFTISRDNAKNTVYLQMNSLKPEDTAVYYCNARRPGYRPYGYDYWGQGTQVTVSS
polyreactivity (PSR sort gate): high polyreactivity
//
Chain sequence: QVQLVESGGGLVQAGGSLRLSCAASGSTFYIYAIGLYRQAPGKERELVAAINWRTGSTYYADSVMGRFTISRDNAKNTVYLQMNSLKPEDTAVYYWNAYTQHWSYWGQGTQVTVSS
polyreactivity (PSR sort gate): high polyreactivity
//
Chain sequence: QVQLVESGGGLVQAGGSLRLSCAASGFTFRWYTMGWYRQAPGKERELVASINWSTGTPYYADSVKGRFTISRDNAKNTVYLQMNSLNPEDTAVYYCNARFRGRVYDRFGYRGQGTQVTVSS
polyreactivity (PSR sort gate): high polyreactivity
//
Chain sequence: QVQLEESGGGLVQAGGSLRLSCAASGSIFFWYAMGWSRQAPGKERELVAAISSSGSTNYADSVKGRFTISRDNAKNTVYLQMNSLKPEDTAVYYCATRKYVYYPVQYEFWGQGTQVTVSS
polyreactivity (PSR sort gate): high polyreactivity
//
Chain sequence: QVQLVESGGGLVQAGGSLRLSCAASGRTFAWKAMGWYRQAPGKERELVAAMSSRGTSTYYADSVKGRFTISRDNAKKTVYLQMNSLKPEDTAVYYCAKYTNPASGEYGYWGQGTQVTVSS
polyreactivity (PSR sort gate): high polyreactivity

Each sequence below has a recorded value; state its polyreactivity (PSR sort gate).
1. QVQLVESGGGLDQAGGSHRLSCAASGRIFTYNAIGWYRQAPGKERELVAAISRRGGTTYYADSVKGRFTISRDNAKNTVYLQMNSLKPEDTAVYYCAAVVFTRGVTSRTVSRYDYWGQGTLVTVSS
2. QVQLVESGGGLVQAGGSLRLSCAASGFILGYYAMGWYRQAPGKERELVAAISWNGGRTYYADSVKGRFTISRDNAKNTVYLQMNSLKPEDTAVYYCAVVATVIPWPYDYWGQGTQVTVSS
3. QVQLVESGGGLVQAGGSLRLSCASSGSTFSPNAMGWYRQAPGKERELVAAITYRGANTYYADSVKGRFTISRDNAKNTVYLQMNSLKPEDTAVYYCAAEYAYHHVGFGYWGQGTQVTVSS
4. QVQLEESGGGVVQAGGSLRLSCAASGSTFLQYAMGWYRQATGKERELVAAISWRAGSTYYADSVKGRFTISRDTAQNTVYLQMNSLKPEDTAVYYCAADRNGWRYELDDYDYWGQGTQVTVSS

1: high polyreactivity; 2: high polyreactivity; 3: low polyreactivity; 4: low polyreactivity

---

# Procedure details: yeast display, Sf9 membrane polyspecificity reagent, FACS + sequencing; frameworks hold sequencing errors
Reported property: polyreactivity (PSR sort gate)

Example entries begin here.
Chain sequence: QVQLVESGGGLVQAGGSLRLSCAASGFTFYKYAMGGYRQEPGKERELVATITISGITNYADSVKGRFTISRDNAKNTVYLQMNSLKPEDTAVYYCATVGPWPGEYDYWGQGTQVTVSS
polyreactivity (PSR sort gate): low polyreactivity
//
Chain sequence: QVQLLDSGGGLVKAGGILRLSCAASGRTFGRYAMGCYRQSPGKERELVATISSRGGNAYYAESVKGRFTISRDNAKNTVYFQMNSLKPEYTGVYYCEAQTYKCYDWRQGTQVTVSS
polyreactivity (PSR sort gate): high polyreactivity
//
Chain sequence: QVQLVESGGGLVQAGGSLRLSCAASGRIFYRYAMGWYRQAPGKERELVAAINKSGGSTYYADSVKGRFTISRDNGKNTVSLQMKSLKPEDTAVYYCTAVYYWYKGDYWGQGTQVTVSS
polyreactivity (PSR sort gate): high polyreactivity
//
Chain sequence: QVQLVESGGGLVQAGGSLRLSCAASGSTFSYYAMGWYRQAPGKEREFVAAISSSGGRTYYADSVKGRFTISRDNAKNTVYLQMNSLKPEDTAVYYCNAYYLAEYDYWGQGTQVTVSS
polyreactivity (PSR sort gate): high polyreactivity
//
Chain sequence: QVQLVESGGGLVQAGGSLRLSCDASGRTFRYYAMGWYRQAPGKEREMVAAITRSGGSTYYADSVKGRFTISRDNAKNTVYLQMNSLKAVDTAVYYCAESRFYSYGIDYDYWGQGTQVTVSS
polyreactivity (PSR sort gate): high polyreactivity

Proceeding to the next sequence to report its polyreactivity (PSR sort gate).
Which polyreactivity (PSR sort gate) is reported for this sequence? QVQLVESRGCLVQAGGSLRLSCAASGSTFYPYAMGWYRQAPGKERELVAGITVIDGSTYYADSVKGRFTISRDNAKNTVYLQMNSLKPEDTAVYYCAFDAPNQVQEYGYWGQGTQVTVSS low polyreactivity

---

# Procedure details: yeast display, Sf9 membrane polyspecificity reagent, FACS + sequencing; frameworks hold sequencing errors
Reported property: polyreactivity (PSR sort gate)

Example entries begin here.
Chain sequence: QVQLVESGGGLVQAGGSLRLSCAASGRIFGGYAMGWYRQAPGKERELVASITGGGTTDYADSVKGRFTISRDNAKNTVYLQMNSLKPEDTAVYYCAKRSHQFGVSRSYNTYYYWGQGTQVTVSS
polyreactivity (PSR sort gate): low polyreactivity
//
Chain sequence: QVQLVESGGGLVQAGGSLRLSCAASGYTFPSNAMGWYRQAPGKERDWVAAISSGGRTNYADSVKGRFTISRDNAKNTVYLQMNSLKPEDTAVYYCNADGGPGYPRAYDYWGQGTQVTVSS
polyreactivity (PSR sort gate): low polyreactivity
//
Chain sequence: QVQLVESAGGLVQAGGSLLLSCAASGFTFYPYAMGWYRQAPGKERELVAAISNGDSTHYADSVKGRFTISRDNAKNTVYLQMTSQKPEDTAVYYCAAPRYPYRCFYSDYDYWGQGTQVTVSS
polyreactivity (PSR sort gate): low polyreactivity
//
Chain sequence: QVQLVESGGGLVQAGGSLRLSCAASGRSFTPYARGWYRQAPGKERELVAAISTIGGTTYADSVKGRFTISRDNAKNTVYLQRNSLKPEDTAVYYCAAERPPYPGNGRDYWGQGTQVTVSS
polyreactivity (PSR sort gate): high polyreactivity

Proceeding to the next sequence to report its polyreactivity (PSR sort gate).
Which polyreactivity (PSR sort gate) is reported for this sequence? QVQLVESGGGLVQAGGSLRLSCAASGFTISRNAMGWYRQAPGKERELVAAISQSGGSTYYADSVKGRFTISRDNAKNTVYLQMNSLKPEDTAVYYCAAQSFAQYGWRYGYWGQGTQVTVSS high polyreactivity

---

# Procedure details: yeast display, Sf9 membrane polyspecificity reagent, FACS + sequencing; frameworks hold sequencing errors
Reported property: polyreactivity (PSR sort gate)

Example entries begin here.
Chain sequence: QVQLVESGGGLVQAGGSLRLSCAASGIILTYYAMGWYRPAAGHERELVARISSSGGRTYYADSVKARFTISRDNAKNTLYLQMNSQKPEETAVYYCAAAIVSSGRNDYWGHGTQVTVSS
polyreactivity (PSR sort gate): high polyreactivity
//
Chain sequence: QVQLVESGRGLVQAGGSLRISCAPSGITFGRYVMGWYRQAPGKERELVAVISRGGSTNYADSVKGRFTIARDNAKNTDYLQMNSLKPEDSAVYYCAADEWIVHDGYYSSYYYWGQGTQVTVSS
polyreactivity (PSR sort gate): low polyreactivity
//
Chain sequence: QVQLVESGGGLVQAGGSLRLSCAASGRIFGQNAMGWYRQSPGKERELVAVITSRGTRTYYADSVKGRFTISRDNAKNTVYLQMNSLNQEDTAVYYCAADVYSDNYKTWPYDYWGQGTQVTVSS
polyreactivity (PSR sort gate): low polyreactivity
//
Chain sequence: QVQLVESGGGLVQAGGSLRLSCAASGRTFYGYVMGWYRQAPGQERELVAAISRSVGSTYYADSVKGRFTISRDNAKNTVYLQMNSLKPEDTAVYYCATSVYGGVDYWGQGTQVTVSS
polyreactivity (PSR sort gate): high polyreactivity
//
Chain sequence: QVQLVESGGGLVQAGGSLRVSCAASGLTFSVYTRGWYRQAPGKERELVAAITTSGGRTYYADSVKGRFTISRDNAKNTVYLQMNSLKPEDTAVYYCAAVRTGDTTGTMGYWGQGTQVTVSS
polyreactivity (PSR sort gate): high polyreactivity

Each sequence below has a recorded value; state its polyreactivity (PSR sort gate).
1. QVQLVESGGGLVQAGGSLRLSCAASGRTLGVYAMGWYRQAPGKERELVATITSGDGTNYADSVKGRFTISRDNAKNTVYLQMNSLKPVDTAVYYCNAEAKSQWFVYPYWYWPLYDYWGPGTQVTVSS
2. QVQLVDSGGGLVQAGGSLRLSCAASGSTFSSYAMGWYRQAPGKERELVDVITRGTSTNYADSVKGRFTISRDNAKNTVYLQMNSLKPEDTAVYYCNSRRGSRRFGYCGQGTQVTVSS

1: low polyreactivity; 2: high polyreactivity
